biological target: Neu5Ac(a2-3)Gal(b1-4)GlcNAc(b1-3)Gal; assay: glycan array binding signal (z-score within array); higher = stronger binding; conditions: glycan notation: IUPAC condensed, linker removed
This is one part of a sample in which the strongest signals are shown more often than they occur.
PROPERTY_NAME: glycan array binding signal (z-score)
The answer should be written as a number, with no unit following it.

# BINDER, TEST_RESULT
measured = [
    ("Cohesin-mDCIR (Macaca mulatta) (protein) GLDDLDAVRIKVDTVNAKPGDTVRIPVRFSGIPSKGIANCDFVYSYDPNVLEIIEIEPGDIIVDPNPDKSFDTAVYPDRKIIVFLFAEDSGTGAYAITKDGVFATIVAKVKEGAPNGLSVIKFVEVGGFANNDLVEQKTQFFDGGVNVGDTTEPATPTTPVTTPTTTDDLDAASFQKYSQLLEKMTTKDLVHTTLECVKKNMTTEETAWSCCPKNWKPFSSNCYFISTESASWQKSEKDCARMEAHLLVINTREEQDFIFQNLQEESAYFVGLSDPEGQRHWQWVDRTPYNESSTFWHPHEPSDPDERCVVLNFRKTPKRWGWNDVHCIVHQRSVCEMMKIHLHHHHHH", -0.377),
    ("DC-ASGPR S+GEE (Homo sapiens) (protein) MTRTYENFQYLENKVKVQGFKNGPLPLQSLLQRLRSGPCHLLLSLGLGLLLLVIICVVGFQNSKFQRDLVTLRTDFSNFTSNTVAEIQALTSQGSSLEETIASLKAEVEGFKQERQAVHSEMLLRVQQLVQDLKKLTCQVATINNNGEEASTEGTCCPVNWVEHQDSCYWFSHSGMSWAEAEKYCQLKNAHLVVINSREEQNFVQKYLGSAYTWMGLSDPEGAWKWVDGTDYATGFQNWKPGQPDDWQGHGLGGGEDCAHFHPDGRWNDDVCQRPYHWVCEAGLGQTSQESH", -0.325),
]

# ---- query binder ----
So what does the record say about glycan array binding signal (z-score) for LecRKVI.2 (protein) RTTTNFAFRGFNGNQSKIRIEGAAMIKPDGLLRLTDRKSNVTGTAFYHKPVRLLNRNSTNVTIRSFSTSFVFVIIPSSSSNKGFGFTFTLSPTPYRLNAGSAQYLGVFNKENNGDPRNHVFAVEFDTVQGSRDDNTDRIGNDIGLNYNSRTSDLQEPVVYYNNDDHNKKEDFQLESGNPIQALLEYDGATQMLNVTVYPARLGFKPTKPLISQHVPKLLEIVQEEMYVGFTASTGKGQSSAHYVMGWSFSSGGERPIADVLILSELPPPPPNKAKKEGLNS ?
-0.323

Provenance of the data: the supplement of paper PMC8728848
